Reference for the values: PubChem BioAssay (EPA / NIEHS)

- Test System: Heat shock factor protein 1 (Homo sapiens)
- Method Notes: ATG_HSE_CIS: Attagene CIS-FACTORIAL HepG2 Assay for human Heat Shock Transcription Factor 1 (HSE) (AID 2282953)
- Reported Conditions: HepG2 HSE cis-reporter, Attagene RNA transcription; actives raise or lower the signal
Active and inactive are the calls of the source. The calls were made as follows: active = hit-call score of the fitted dose curve at least 0.9, where 1 is the maximum; inactive = score below 0.9.
Assay Endpoint: AC50

[[record]]
molecule = "CC(C)=NNC(N)=S"
test_system = "Heat shock factor protein 1 (Homo sapiens)"
result = "inactive"

[[record]]
molecule = "CO[Si](C)(C)OC"
test_system = "Heat shock factor protein 1 (Homo sapiens)"
result = "inactive"

[[record]]
molecule = "O=C(Oc1ccccc1)c1ccccc1O"
test_system = "Heat shock factor protein 1 (Homo sapiens)"
result = "inactive"

[[record]]
molecule = "CC=C(C)C(C)=O"
test_system = "Heat shock factor protein 1 (Homo sapiens)"
result = "inactive"

[[record]]
molecule = "C=C(C)C1CC=C(C)C(OC(C)=O)C1 (configuration not stated)"
test_system = "Heat shock factor protein 1 (Homo sapiens)"
result = "inactive"

[[record]]
molecule = "O=C(O)c1ccc2c(c1)C(=O)OC2=O"
test_system = "Heat shock factor protein 1 (Homo sapiens)"
result = "inactive"

[[record]]
molecule = "C=C[Si](OCCOC)(OCCOC)OCCOC"
test_system = "Heat shock factor protein 1 (Homo sapiens)"
result = "inactive"

[[record]]
molecule = "CCOC(=O)[C@H](O)[C@@H](O)C(=O)OCC"
test_system = "Heat shock factor protein 1 (Homo sapiens)"
result = "inactive"

[[record]]
molecule = "CCCSSCCC"
test_system = "Heat shock factor protein 1 (Homo sapiens)"
result = "inactive"

[[record]]
molecule = "CC(C)c1ccc(O)c(C(C)C)c1"
test_system = "Heat shock factor protein 1 (Homo sapiens)"
result = "inactive"

[[record]]
molecule = "CCOC(=O)/C=C\\C(=O)OCC"
test_system = "Heat shock factor protein 1 (Homo sapiens)"
result = "inactive"

[[record]]
molecule = "CC(=O)CCC1=C(C)CCCC1(C)C"
test_system = "Heat shock factor protein 1 (Homo sapiens)"
result = "inactive"

[[record]]
molecule = "CCCCCC[C@@H](O)C/C=C\\CCCCCCCC(=O)OCC(O)CO (some centres not stated)"
test_system = "Heat shock factor protein 1 (Homo sapiens)"
result = "184 µM (active)"

[[record]]
molecule = "Cc1cc(=O)[nH]c(=O)[nH]1"
test_system = "Heat shock factor protein 1 (Homo sapiens)"
result = "inactive"

[[record]]
molecule = "CN(C)c1ccc2nc3ccc(=[N+](C)C)cc-3sc2c1"
test_system = "Heat shock factor protein 1 (Homo sapiens)"
result = "inactive"

[[record]]
molecule = "CCCCC(CC)COC(=O)/C=C/c1ccc(OC)cc1 (configuration not stated)"
test_system = "Heat shock factor protein 1 (Homo sapiens)"
result = "inactive"

[[record]]
molecule = "N=C1C=CC(=C(c2ccc(N)cc2)c2ccc(N)cc2)C=C1"
test_system = "Heat shock factor protein 1 (Homo sapiens)"
result = "42.5 µM (active)"

[[record]]
molecule = "CC(C)c1cc(C(C)C)cc(C(C)C)c1"
test_system = "Heat shock factor protein 1 (Homo sapiens)"
result = "inactive"

[[record]]
molecule = "C1CNCCN1"
test_system = "Heat shock factor protein 1 (Homo sapiens)"
result = "inactive"

[[record]]
molecule = "CCCCCCCCCCCC(=O)OCC"
test_system = "Heat shock factor protein 1 (Homo sapiens)"
result = "inactive"

[[record]]
molecule = "CCCCNS(=O)(=O)c1ccccc1"
test_system = "Heat shock factor protein 1 (Homo sapiens)"
result = "inactive"

[[record]]
molecule = "CCCCCCCCCC[N+](C)(CCCCCCCCCC)CCC[Si](OC)(OC)OC"
test_system = "Heat shock factor protein 1 (Homo sapiens)"
result = "inactive"

[[record]]
molecule = "CCc1cccc(C)c1N"
test_system = "Heat shock factor protein 1 (Homo sapiens)"
result = "inactive"

[[record]]
molecule = "CCCc1ccc(O)c(OC)c1"
test_system = "Heat shock factor protein 1 (Homo sapiens)"
result = "inactive"

[[record]]
molecule = "Cc1c(Cl)cccc1Cl"
test_system = "Heat shock factor protein 1 (Homo sapiens)"
result = "inactive"

[[record]]
molecule = "CCCCC(CC)COS(=O)(=O)O (configuration not stated)"
test_system = "Heat shock factor protein 1 (Homo sapiens)"
result = "inactive"

[[record]]
molecule = "CCCCCCCC(=O)OCC"
test_system = "Heat shock factor protein 1 (Homo sapiens)"
result = "inactive"

[[record]]
molecule = "CC1=CCC(C(C)C)C=C1 (configuration not stated)"
test_system = "Heat shock factor protein 1 (Homo sapiens)"
result = "inactive"

[[record]]
molecule = "OCCCc1ccccc1"
test_system = "Heat shock factor protein 1 (Homo sapiens)"
result = "inactive"

[[record]]
molecule = "Nc1ncnc2nc[nH]c12"
test_system = "Heat shock factor protein 1 (Homo sapiens)"
result = "inactive"

[[record]]
molecule = "C=Cc1cccc(C)c1"
test_system = "Heat shock factor protein 1 (Homo sapiens)"
result = "inactive"

[[record]]
molecule = "c1ccc2c(c1)[nH]c1ccccc12"
test_system = "Heat shock factor protein 1 (Homo sapiens)"
result = "inactive"


###

- Test system: DIO1 (gene 1733)
- Method Notes: CCTE_GLTED_hDIO1: CCTE's human Deiodinase 1 (DIO1) Inhibition Assay, Great Lakes Toxicology and Ecology Division (GLTED) Lab (AID 2283987);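 also: isolated human DIO1 enzyme in a cell-free setup rather than cells; enzyme activity read as free iodide liberated from substrate via Sandell-Kolthoff colorimetry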
Results filed as inconclusive are left out. Activity calls are given as the source filed them. How the source made its calls: active means hit-call score of the fitted dose curve at least 0.9, where 1 is the maximum; inconclusive means response in the unintended direction; inactive means score below 0.9.
Reported AC50 is given for each of the following compounds.
Assay Endpoint: AC50

[[record]]
given_smiles = "O=C(O)c1cc(O)c2ccccc2c1O"
assay_endpoint = "AC50"
result = "50.1 µM (active)"

[[record]]
given_smiles = "CCCCCCCOC(=O)c1ccc(O)cc1"
assay_endpoint = "AC50"
result = "75 µM (active)"

[[record]]
given_smiles = "CCCCCCCCCCCCCCCCCCOS(=O)(=O)O"
assay_endpoint = "AC50"
result = "90.1 µM (active)"

[[record]]
given_smiles = "CCCCC/C=C\\C/C=C\\CCCCCCCC(=O)O"
assay_endpoint = "AC50"
result = "19.2 µM (active)"

[[record]]
given_smiles = "CCCCCCCCCCCCc1ccc(O)cc1"
assay_endpoint = "AC50"
result = "31.5 µM (active)"


###

- Method Notes: ATG_M_61_CIS: Attagene CIS-FACTORIAL HepG2 Assay for M61 Transcription Factor (Internal Marker) (AID 2282937)
- Reported Conditions: HepG2 Attagene CIS-FACTORIAL M61 internal marker reporter; actives raise or lower the signal
Calls of active or inactive are those of the source. Rule for the calls: active = hit-call score of the fitted dose curve at least 0.9, where 1 is the maximum; inactive = score below 0.9.
Assay Endpoint: outcome

[[record]]
molecule = "CC12CCC(CC1)C(C)(C)O2"
assay_endpoint = "outcome"
result = "inactive"

[[record]]
molecule = "CCCCCC1=CCCC1=O"
assay_endpoint = "outcome"
result = "inactive"

[[record]]
molecule = "CCCCC1C(=O)N(c2ccccc2)N(c2ccccc2)C1=O"
assay_endpoint = "outcome"
result = "inactive"

[[record]]
molecule = "CC(C)c1cccc(C(C)C)c1N"
assay_endpoint = "outcome"
result = "inactive"

[[record]]
molecule = "CN1CCN(C)CC1"
assay_endpoint = "outcome"
result = "inactive"

[[record]]
molecule = "COc1ccc(C(=O)c2ccccc2)c(O)c1"
assay_endpoint = "outcome"
result = "inactive"

[[record]]
molecule = "CC(C)=NNC(N)=S"
assay_endpoint = "outcome"
result = "inactive"

[[record]]
molecule = "Oc1c(Cl)cc(Cl)c(Cl)c1Cl"
assay_endpoint = "outcome"
result = "inactive"

[[record]]
molecule = "[Cl][Eu]([Cl])[Cl]"
assay_endpoint = "outcome"
result = "inactive"

[[record]]
molecule = "CC=CC(=O)OCC(C)C"
assay_endpoint = "outcome"
result = "inactive"

[[record]]
molecule = "CC(C)C(=O)OCCc1ccccc1"
assay_endpoint = "outcome"
result = "inactive"

[[record]]
molecule = "CCC(C)C(=O)OCCc1ccccc1 (configuration not stated)"
assay_endpoint = "outcome"
result = "inactive"

[[record]]
molecule = "CC(C)=CCCC(C)=CC#N"
assay_endpoint = "outcome"
result = "inactive"

[[record]]
molecule = "CC(C)(c1ccccc1)c1ccc(Nc2ccc(C(C)(C)c3ccccc3)cc2)cc1"
assay_endpoint = "outcome"
result = "inactive"

[[record]]
molecule = "CC1=CC=C(C(C)C)CC1"
assay_endpoint = "outcome"
result = "inactive"

[[record]]
molecule = "O=C(O)c1ccc2c(c1)C(=O)OC2=O"
assay_endpoint = "outcome"
result = "inactive"

[[record]]
molecule = "CC1CC(=O)CC(C)(C)C1 (configuration not stated)"
assay_endpoint = "outcome"
result = "inactive"

[[record]]
molecule = "CCCCCC[C@@H](O)C/C=C\\CCCCCCCC(=O)OCC(O)CO (some centres not stated)"
assay_endpoint = "outcome"
result = "inactive"

[[record]]
molecule = "CC(C)(C)N"
assay_endpoint = "outcome"
result = "inactive"

[[record]]
molecule = "c1ccc2cnccc2c1"
assay_endpoint = "outcome"
result = "inactive"

[[record]]
molecule = "CC(C)(O)Cc1ccccc1"
assay_endpoint = "outcome"
result = "inactive"

[[record]]
molecule = "C=C1C[C@H]2[C@@H]3C=C(C)C4=CC(=O)CC[C@]4(C)[C@H]3CC[C@]2(C)[C@@]1(OC(C)=O)C(C)=O"
assay_endpoint = "outcome"
result = "inactive"

[[record]]
molecule = "CC=C(C)C=CC=C(C)C"
assay_endpoint = "outcome"
result = "inactive"

[[record]]
molecule = "CCC(C)N (configuration not stated)"
assay_endpoint = "outcome"
result = "inactive"

[[record]]
molecule = "O=C(O)C1CCC(C(=O)O)CC1 (configuration not stated)"
assay_endpoint = "outcome"
result = "inactive"

[[record]]
molecule = "Nc1ncnc2nc[nH]c12"
assay_endpoint = "outcome"
result = "inactive"

[[record]]
molecule = "CC(=O)OCC=C(C)C"
assay_endpoint = "outcome"
result = "inactive"

[[record]]
molecule = "CCc1cccc(CC)c1"
assay_endpoint = "outcome"
result = "inactive"

[[record]]
molecule = "CC=C(C)C(C)=O"
assay_endpoint = "outcome"
result = "inactive"

[[record]]
molecule = "COc1ccc(-c2coc3cc(O)cc(O)c3c2=O)cc1"
assay_endpoint = "outcome"
result = "inactive"

[[record]]
molecule = "CC(=O)CC(=O)Nc1ccccc1C"
assay_endpoint = "outcome"
result = "inactive"

[[record]]
molecule = "CCCc1ccc(O)c(OC)c1"
assay_endpoint = "outcome"
result = "inactive"

